- measuredTarget: T1, cynomolgus TIGIT over-expressed on CHO-K1 cells (cynomolgus, UniProt A0A7N9I9V4 89-312)
- T1 construct: whole, on cells; also called CHO-K1/cynomolgus TIGIT cells
- T1 sequence (A0A7N9I9V4 entry or part of it): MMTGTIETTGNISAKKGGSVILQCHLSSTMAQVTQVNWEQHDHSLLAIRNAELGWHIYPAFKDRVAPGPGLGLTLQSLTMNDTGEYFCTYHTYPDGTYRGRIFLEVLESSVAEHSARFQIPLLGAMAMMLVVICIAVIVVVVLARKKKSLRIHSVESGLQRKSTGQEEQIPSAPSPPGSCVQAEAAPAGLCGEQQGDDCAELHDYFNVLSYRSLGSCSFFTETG
- testProtocol: FACS, CHO-K1 cells over-expressing cynomolgus TIGIT
recordedMetric: Bottom (best-fit)

- 100C4E7D11VH1_VL1 (antibody, V domains shown, Humanized antibody, variable domains fused with the constant region of human IgG1; also called 100C4VH1_VL1) VH: EVQLVESGGGLVKPGGSLRLSCAASGFTFSFYTMSWVRQAPGKGLEWVSTISSGGGSTYYSDSVKGRFTISRDNAKNSLYLQMNSLRAEDTAVYYCARSLPVDYWGQGTTVTVSS VL: EIVLTQSPGTLSLSPGERATLSCTASSSVSSTYLHWYQQKPGQAPRLLIYSTSNLASGIPDRFSGSGSGTDFTLTISRLEPEDFAVYYCHLYHHSPYTFGGGTKVEIK: 2830

Recorded values, source patent US20210095028A1.
